System: Staphylococcus aureus ATCC 29213
Measurement Description: microbe, parasite or virus in culture
Details: ATCC 29213
Experimental Endpoint: susceptibility category (CLSI M100 interpretive criteria)

INSERT INTO assay_data (compound, observed_value) VALUES
  ('CCCCCCCCCC(=O)N[C@@H](Cc1c[nH]c2ccccc12)C(=O)N[C@H](CC(N)=O)C(=O)N[C@@H](CC(=O)O)C(=O)N[C@@H]1C(=O)NCC(=O)N[C@@H](CCCN)C(=O)N[C@@H](CC(=O)O)C(=O)N[C@H](C)C(=O)N[C@@H](CC(=O)O)C(=O)NCC(=O)N[C@H](CO)C(=O)N[C@@H]([C@H](C)CC(=O)O)C(=O)N[C@@H](CC(=O)c2ccccc2N)C(=O)O[C@@H]1C [Daptomycin]', 'S'),
  ('CN[C@H](CC(C)C)C(=O)N[C@H]1C(=O)N[C@@H](CC(N)=O)C(=O)N[C@H]2C(=O)N[C@H]3C(=O)N[C@H](C(=O)N[C@H](C(=O)O)c4cc(O)cc(O)c4-c4cc3ccc4O)[C@H](O)c3ccc(c(Cl)c3)Oc3cc2cc(c3O[C@@H]2O[C@H](CO)[C@@H](O)[C@H](O)[C@H]2O[C@H]2C[C@](C)(N)[C@H](O)[C@H](C)O2)Oc2ccc(cc2Cl)[C@H]1O [Vancomycin]', 'S'),
  ('Cc1onc(-c2ccccc2)c1C(=O)N[C@@H]1C(=O)N2[C@@H]1SC(C)(C)[C@@H]2C(=O)O [Oxacillin]', 'S');
